# Test system: Avena fatua (AVEFA)
# assay-procedure: Pre-emergence herbicidal action against AVEFA
# Assay type: in vivo
# assay-setup: 320 g/ha, visual scoring after about 3 weeks vs untreated controls
As shown below, each of these compounds has a reported Pre-emergence action against AVEFA in % value.
Give just the numeric value; % need not be written.

// below: answered compounds
{"compound": "O=C(O)COc1nn(-c2ncccc2C(F)(F)F)c(-c2cncc(F)c2)c1I [Example I-186]", "Pre-emergence action against AVEFA in % (%)": 80}
{"compound": "C[C@@H](Oc1nn(-c2nc(F)ccc2F)c(-c2cncc(F)c2)c1Br)C(=O)O [Example I-155]", "Pre-emergence action against AVEFA in % (%)": 90}
{"compound": "CCOC(=O)COc1nn(-c2ncccc2F)c(-c2ccc(F)nc2)c1Br [Example I-39]", "Pre-emergence action against AVEFA in % (%)": 90}
{"compound": "COC(=O)COc1nn(-c2nc(F)ccc2F)c(-c2ccc(F)nc2)c1Br [Example I-369]", "Pre-emergence action against AVEFA in % (%)": 80}
{"compound": "CCOC(=O)[C@@H](C)Oc1nn(-c2ncccc2Cl)c(-c2ccc(F)nc2)c1Br [Example I-27]", "Pre-emergence action against AVEFA in % (%)": 100}
{"compound": "C[C@@H](Oc1nn(-c2nc(F)ccc2F)c(-c2cncc(F)c2)c1C1CC1)C(=O)O [Example I-180]", "Pre-emergence action against AVEFA in % (%)": 90}
{"compound": "COC(=O)[C@@H](C)Oc1nn(-c2ncccc2F)c(-c2cccnc2)c1Br [Example I-03]", "Pre-emergence action against AVEFA in % (%)": 80}

Prompt: Provide one value: measured Pre-emergence action against AVEFA in % of O=C(O)COc1nn(-c2ccccn2)c(-c2cncc(F)c2)c1Br [Example I-84]
Response: 90

====

As shown below, each of these compounds has a reported Post-emergence action against ORYSA in % value.
# System: Oryza sativa (ORYSA)
# Type: in vivo
# assay-setup: crop plant compatibility, 320 g/ha, effect in comparison to untreated controls
Give just the numeric value; % need not be written.

Prompt: Provide one value: measured Post-emergence action against ORYSA in % of COC(=O)C(C)NC(=O)[C@@H](C)Oc1nn(-c2ccccn2)c(-c2ccc(F)nc2)c1Cl (some centres unmarked) [Example I-358]
Response: 0

Prompt: Provide one value: measured Post-emergence action against ORYSA in % of O=C(O)COc1nn(-c2ccccn2)c(-c2cncnc2)c1Br [Example I-66]
Response: 20

Prompt: Provide one value: measured Post-emergence action against ORYSA in % of COC(=O)CNC(=O)COc1nn(-c2cccc(C)n2)c(-c2ccc(F)nc2)c1Br [Example I-357]
Response: 10

Prompt: Provide one value: measured Post-emergence action against ORYSA in % of COC(=O)C(C)NC(=O)C(C)Oc1nn(-c2ccccn2)c(-c2ccc(F)nc2)c1Br (centres unmarked) [Example I-286]
Response: 20

Prompt: Provide one value: measured Post-emergence action against ORYSA in % of CC(C)C(Oc1nn(-c2ccccn2)c(-c2ccc(F)nc2)c1Br)C(=O)O (centres unmarked) [Example I-347]
Response: 0

Prompt: Provide one value: measured Post-emergence action against ORYSA in % of COC(=O)[C@@H](C)Oc1nn(-c2ncccc2F)c(-c2cccnc2)c1C#N [Example I-04]
Response: 0

Prompt: Provide one value: measured Post-emergence action against ORYSA in % of O=C(O)COc1nn(-c2ccccn2)c(-c2ccc(Cl)nc2)c1Cl [Example I-236]
Response: 0

Prompt: Provide one value: measured Post-emergence action against ORYSA in % of CCOC(=O)COc1nn(-c2ccccn2)c(-c2ccc(F)nc2)c1[N+](=O)[O-] [Example I-359]
Response: 0

Prompt: Provide one value: measured Post-emergence action against ORYSA in % of CCOC(=O)COc1nn(-c2cccnc2C)c(-c2ccc(F)nc2)c1Br [II-46]
Response: 0

Prompt: Provide one value: measured Post-emergence action against ORYSA in % of COC(=O)COc1nn(-c2ncccc2C(F)(F)F)c(-c2cncc(F)c2)c1I [Example I-223]
Response: 20

Prompt: Provide one value: measured Post-emergence action against ORYSA in % of COc1cccnc1-n1nc(OCC(=O)O)c(Br)c1-c1ccc(F)nc1 [Example I-363]
Response: 0

Prompt: Provide one value: measured Post-emergence action against ORYSA in % of O=C(O)C1CCCN1C(=O)COc1nn(-c2ccccn2)c(-c2ccc(F)nc2)c1Br (centres unmarked) [Example I-111]
Response: 0

Prompt: Provide one value: measured Post-emergence action against ORYSA in % of Cc1ncccc1-n1nc(OCC(=O)OCc2ccccn2)c(Br)c1-c1cncc(F)c1 [II-39]
Response: 0

Prompt: Provide one value: measured Post-emergence action against ORYSA in % of CCOC(=O)COc1nn(-c2ccc(Br)c(C)n2)c(-c2cncc(F)c2)c1Br [Example I-161]
Response: 0

Prompt: Provide one value: measured Post-emergence action against ORYSA in % of CC(NC(=O)[C@@H](C)Oc1nn(-c2ccccn2)c(-c2ccc(F)nc2)c1Cl)C(=O)O (some centres unmarked) [Example I-350]
Response: 10

Prompt: Provide one value: measured Post-emergence action against ORYSA in % of COC(=O)CCOC(=O)[C@@H](C)Oc1nn(-c2ccccn2)c(-c2ccc(F)nc2)c1Cl [Example I-340]
Response: 0

Prompt: Provide one value: measured Post-emergence action against ORYSA in % of CCOC(=O)C(Oc1nn(-c2ccccn2)c(-c2ccc(F)nc2)c1Br)C(C)C (centres unmarked) [Example I-349]
Response: 10

====

# Tested on: Alopecurus myosuroides (ALOMY)
# assay-procedure: Pre-emergence herbicidal action against ALOMY
# Type: in vivo
# assay-setup: 80 g/ha; scored visually after about 3 weeks; 100% = plants have died
measurement-name: Pre-emergence action against ALOMY

// below: answered molecules
{"molecule": "COC(=O)CNC(=O)[C@@H](C)Oc1nn(-c2ccccn2)c(-c2cncc(F)c2)c1Cl", "Pre-emergence action against ALOMY": "80%"}
{"molecule": "CCOC(=O)[C@@H](C)Oc1nn(-c2nc(F)ccc2F)c(-c2cncc(F)c2)c1Br", "Pre-emergence action against ALOMY": "80%"}
{"molecule": "COC(=O)[C@H](C)COC(=O)COc1nn(-c2ccccn2)c(-c2cncc(F)c2)c1Cl", "Pre-emergence action against ALOMY": "80%"}
{"molecule": "O=C(O)COc1nn(-c2nc(F)ccc2F)c(-c2ccc(F)nc2)c1Br", "Pre-emergence action against ALOMY": "80%"}

Prompt: Would you please give the reported Pre-emergence action against ALOMY of "CCOC(=O)COc1nn(-c2ncccc2C)c(-c2cncc(F)c2)c1Br" with Alopecurus myosuroides (ALOMY)?
Response: 80%

Prompt: Would you please give the reported Pre-emergence action against ALOMY of "COC(=O)[C@@H](C)Oc1nn(-c2ccccn2)c(-c2cncc(F)c2)c1Br" with Alopecurus myosuroides (ALOMY)?
Response: 90%

Prompt: Would you please give the reported Pre-emergence action against ALOMY of "COC(=O)[C@@H](C)Oc1nn(-c2ncccc2F)c(-c2ccc(F)nc2)c1Br" with Alopecurus myosuroides (ALOMY)?
Response: 90%

Prompt: Would you please give the reported Pre-emergence action against ALOMY of "COCCOC(=O)COc1nn(-c2ncccc2F)c(-c2ccc(F)nc2)c1Br" with Alopecurus myosuroides (ALOMY)?
Response: 90%

Prompt: Would you please give the reported Pre-emergence action against ALOMY of CC(Oc1nn(-c2ccccn2)c(-c2ccc(F)nc2)c1C(F)(F)F)C(=O)O (centres unmarked) with Alopecurus myosuroides (ALOMY)?
Response: 80%

====

As shown below, each of these molecules has a reported Post-emergence action against ORYSA in % value.
# Tested on: Oryza sativa (ORYSA)
# Assay type: in vivo
# assay-setup: crop plant compatibility, 80 g/ha, effect in comparison to untreated controls
# Procedure: Seeds of monocotyledonous and dicotyledonous weeds and crop plants are placed in sandy loam in plastic or organic planting pots, covered with soil and cultivated in a greenhouse under controlled growth conditions. 2 to 3 weeks after sowing, the test plants are treated at the one-leaf stage. […]
Give just the numeric value; % need not be written.

// below: answered molecules
{"structure-smiles": "COC(=O)[C@@H](C)Oc1nn(-c2ncccc2F)c(-c2cncc(F)c2)c1Br", "Post-emergence action against ORYSA in %, %": 10}
{"structure-smiles": "COC(=O)CCOC(=O)COc1nn(-c2ccccn2)c(-c2cncc(F)c2)c1C1CC1", "Post-emergence action against ORYSA in %, %": 20}
{"structure-smiles": "O=C(O)COc1nn(-c2ncccc2C(F)(F)F)c(-c2cncc(F)c2)c1I", "Post-emergence action against ORYSA in %, %": 10}

Prompt: Would you please give the reported Post-emergence action against ORYSA in % of "CCOC(=O)CSc1nn(-c2ccccn2)c(-c2cncc(F)c2)c1C1CC1" with Oryza sativa (ORYSA)?
Response: 0

Prompt: Would you please give the reported Post-emergence action against ORYSA in % of "O=C(O)COc1nn(-c2ncccc2F)c(-c2ccnc(F)c2)c1Br" with Oryza sativa (ORYSA)?
Response: 0

Prompt: Would you please give the reported Post-emergence action against ORYSA in % of "O=C(O)COc1nn(-c2ccccn2)c(-c2cncc(F)c2)c1Cl" with Oryza sativa (ORYSA)?
Response: 0

Prompt: Would you please give the reported Post-emergence action against ORYSA in % of "O=C(O)COc1nn(-c2ncccc2F)c(-c2cncc(F)c2)c1C1CC1" with Oryza sativa (ORYSA)?
Response: 20

Prompt: Would you please give the reported Post-emergence action against ORYSA in % of "C[C@@H](Oc1nn(-c2ccnc(Cl)c2)c(-c2ccc(F)nc2)c1Br)C(=O)O" with Oryza sativa (ORYSA)?
Response: 10

Numbers sourced from patent US20240041042A1.
